Attribution: patent US20220089550A1

Procedure Summary: Approximate solubility of crystals of Form A at room temperature
Assay type: physicochemical
Experimental Context: 25 °C, organic solvent or mixture, thermodynamic from solid; Anisole, room temperature
Attribute Measured: solubility

Sample C[C@H](NC(=O)Cn1cnc2cccc(C#N)c21)c1ccc(C(C)(C)C#N)cc1 [Form A] — what was its solubility? 7.3 to 22 mg/mL

* * *

Procedure Summary: Approximate solubility of crystals of Form A at room temperature
Format: physicochemical
Experimental Context: 25 °C, organic solvent or mixture, thermodynamic from solid; MIBK, room temperature
Attribute Measured: solubility

# query: solubility of entry C[C@H](NC(=O)Cn1cnc2cccc(C#N)c21)c1ccc(C(C)(C)C#N)cc1 [Form A] 18 to 36 mg/mL
